- Tested on: CAF#7 (primary prostate cancer-associated fibroblasts of myCAF-like type)
- protocol summary: drug sensitivity score (DSS2, normalised partial AUC of dose-response, 72 h CellTiter-Glo viability) (DSS (dimensionless)); higher = more sensitive (stronger growth inhibition / cytotoxicity); extreme values may be limits of the assay
result type: drug sensitivity score
Answer as a number with no unit attached.

Fill in: drug sensitivity score of CC1=C(/C=C/C(C)=C/C=C/C(C)=C/C(=O)O)C(C)(C)CCC1 [Tretinoin] (tested concentration range 1-10000 nM) is ___
5

Fill in: drug sensitivity score of CCNC(=O)CCC/C=C\C[C@@H]1[C@@H](/C=C/[C@@H](O)CCc2ccccc2)[C@H](O)C[C@@H]1O [Bimatoprost] (tested concentration range 0.6-5500 nM) is ___
0

Fill in: drug sensitivity score of CCCCc1nc2cc(/C=C/C(=O)NO)ccc2n1CCN(CC)CC [Pracinostat] (tested concentration range 1-10000 nM) is ___
8.4

Fill in: drug sensitivity score of CCC(C)n1ncn(-c2ccc(N3CCN(c4ccc(OCC5COC(Cn6cncn6)(c6ccc(Cl)cc6Cl)O5)cc4)CC3)cc2)c1=O (stereo unspecified) [Itraconazole] (tested concentration range 0.5-5000 nM) is ___
1.2

Fill in: drug sensitivity score of O=C(Nc1cnn2ccc(N3CCC[C@@H]3c3cc(F)ccc3F)nc12)N1CC[C@H](O)C1 [Larotrectinib] (tested concentration range 0.1-1000 nM) is ___
0

Fill in: drug sensitivity score of Clc1ccc(C(c2ccccc2Cl)C(Cl)Cl)cc1 (stereo unspecified) [Mitotane] (tested concentration range 1-10000 nM) is ___
0

Fill in: drug sensitivity score of CN(C)C/C=C/C(=O)Nc1cc2c(Nc3ccc(F)c(Cl)c3)ncnc2cc1O[C@H]1CCOC1 [Afatinib] (tested concentration range 0.1-1000 nM) is ___
0

Fill in: drug sensitivity score of CNC(=O)c1ccccc1Sc1ccc2c(/C=C/c3ccccn3)n[nH]c2c1 [Axitinib] (tested concentration range 1-10000 nM) is ___
5.5

Fill in: drug sensitivity score of Cc1ccc(C(=O)Nc2ccc(Oc3cc4cnn(C)c4cc3-c3cn[nH]c3)c(F)c2)c(=O)n1-c1ccc(F)cc1 [Merestinib] (tested concentration range 0.1-1000 nM) is ___
3.9

Fill in: drug sensitivity score of O=C(Nc1cc(Cl)cc2c1[nH]c1cnccc12)c1cccnc1 [PS-1145] (tested concentration range 2.5-25000 nM) is ___
0

Fill in: drug sensitivity score of CNC(=O)c1ccc(-c2cnc3ncc(Cc4ccc5ncccc5c4)n3n2)cc1F [Capmatinib] (tested concentration range 0.1-1000 nM) is ___
0

Fill in: drug sensitivity score of CNc1ncc2cc(-c3cc(NC(=O)NCCC(C)(C)C)c(F)cc3C)c(C)nc2n1 (tested concentration range 1-10000 nM) is ___
8

Fill in: drug sensitivity score of COc1cc2nccc(Oc3ccc(NC(=O)NC4CC4)c(Cl)c3)c2cc1C(N)=O [Lenvatinib] (tested concentration range 0.2-2500 nM) is ___
5.8

Fill in: drug sensitivity score of C[C@@]1(C(=O)Nc2ccc(F)nc2)CCCN1c1nc(Nc2cc(C3CC3)n[nH]2)c2cccn2n1 (tested concentration range 1-10000 nM) is ___
10.5

Fill in: drug sensitivity score of CN(C)CC#Cc1ccc(OCCCc2sc(N3CCc4cccc(C(=O)Nc5nc6ccccc6s5)c4C3)nc2C(=O)O)c(F)c1 (tested concentration range 1-10000 nM) is ___
4.1

Fill in: drug sensitivity score of O=C(c1ccc(C(=O)N2CCC(N3CCCC3)CC2)c(Nc2ccccc2)c1)N1CCC(N2CCCC2)CC1 [UNC1215] (tested concentration range 1-10000 nM) is ___
0

Fill in: drug sensitivity score of Cn1cnc2c(F)c(Nc3ccc(Br)cc3Cl)c(C(=O)NOCCO)cc21 [Selumetinib] (tested concentration range 1-10000 nM) is ___
2.6

Fill in: drug sensitivity score of CO[C@H]1C[C@@H]2CC[C@@H](C)[C@@](O)(O2)C(=O)C(=O)N2CCCC[C@H]2C(=O)O[C@H]([C@H](C)C[C@@H]2CC[C@@H](OCCO)[C@H](OC)C2)CC(=O)[C@H](C)/C=C(\C)[C@@H](O)[C@@H](OC)C(=O)[C@H](C)C[C@H](C)/C=C/C=C/C=C/1C [Everolimus] (tested concentration range 0-100 nM) is ___
10.8

Fill in: drug sensitivity score of CCOCc1nc2c(N)nc3ccccc3c2n1CC(C)(C)O [Resiquimod] (tested concentration range 1-10000 nM) is ___
0

Fill in: drug sensitivity score of CO[C@H]1C[C@@H]2CC[C@@H](C)[C@@](O)(O2)C(=O)C(=O)N2CCCC[C@H]2C(=O)O[C@H]([C@H](C)C[C@@H]2CC[C@@H](O)[C@H](OC)C2)CC(=O)[C@H](C)/C=C(\C)[C@@H](O)[C@@H](OC)C(=O)[C@H](C)C[C@H](C)/C=C/C=C/C=C/1C [Sirolimus] (tested concentration range 0-100 nM) is ___
3.7

Fill in: drug sensitivity score of Cc1ccc(C(=O)Nc2cccc(C(F)(F)F)c2)cc1Nc1nc(-c2cccnc2)nc2c1cnn2C [NVP-BHG712] (tested concentration range 1-10000 nM) is ___
0
